target: human nAChRα6-α3 chimera, in addition to β2 and β3^V273S subunits (Homo sapiens, UniProt P32297+Q15825); construct: expressed in transfected cells; experiment: fluorescence-based calcium assay: inhibition of nicotine stimulated nAChRα6 activity (FLIPR); details: HEK cell line stably expressing the receptor; 10 min pre-incubation, nicotine EC80; 10-point curve, duplicate wells; read-out: IC50
Sequence (Q05901 25-458 V273S): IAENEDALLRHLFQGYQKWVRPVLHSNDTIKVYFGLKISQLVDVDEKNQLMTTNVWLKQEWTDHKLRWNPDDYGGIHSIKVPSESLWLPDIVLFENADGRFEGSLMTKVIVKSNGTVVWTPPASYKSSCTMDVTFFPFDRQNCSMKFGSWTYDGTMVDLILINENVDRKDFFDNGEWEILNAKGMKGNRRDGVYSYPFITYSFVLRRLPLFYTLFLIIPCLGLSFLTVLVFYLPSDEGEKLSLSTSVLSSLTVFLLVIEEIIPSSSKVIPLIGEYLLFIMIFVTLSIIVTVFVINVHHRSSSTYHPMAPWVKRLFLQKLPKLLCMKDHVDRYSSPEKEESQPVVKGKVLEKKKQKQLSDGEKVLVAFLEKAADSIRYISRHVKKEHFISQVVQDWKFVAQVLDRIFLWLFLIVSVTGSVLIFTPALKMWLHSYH
Sequence (P17787 26-502, stated change not applied, further chain): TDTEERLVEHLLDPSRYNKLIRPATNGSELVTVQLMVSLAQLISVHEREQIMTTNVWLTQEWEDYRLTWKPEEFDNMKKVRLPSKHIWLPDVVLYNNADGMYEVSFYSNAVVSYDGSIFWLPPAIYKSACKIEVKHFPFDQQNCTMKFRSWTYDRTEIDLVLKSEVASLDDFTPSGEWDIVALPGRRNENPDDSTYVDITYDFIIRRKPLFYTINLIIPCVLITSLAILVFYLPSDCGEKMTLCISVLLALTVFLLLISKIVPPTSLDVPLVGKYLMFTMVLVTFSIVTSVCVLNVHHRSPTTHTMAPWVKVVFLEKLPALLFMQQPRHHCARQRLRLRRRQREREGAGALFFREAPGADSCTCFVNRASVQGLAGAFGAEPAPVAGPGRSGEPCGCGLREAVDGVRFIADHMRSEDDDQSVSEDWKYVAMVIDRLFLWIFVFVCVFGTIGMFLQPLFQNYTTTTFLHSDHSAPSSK
Sequence (Q15825+P32297 fused with the stated changes): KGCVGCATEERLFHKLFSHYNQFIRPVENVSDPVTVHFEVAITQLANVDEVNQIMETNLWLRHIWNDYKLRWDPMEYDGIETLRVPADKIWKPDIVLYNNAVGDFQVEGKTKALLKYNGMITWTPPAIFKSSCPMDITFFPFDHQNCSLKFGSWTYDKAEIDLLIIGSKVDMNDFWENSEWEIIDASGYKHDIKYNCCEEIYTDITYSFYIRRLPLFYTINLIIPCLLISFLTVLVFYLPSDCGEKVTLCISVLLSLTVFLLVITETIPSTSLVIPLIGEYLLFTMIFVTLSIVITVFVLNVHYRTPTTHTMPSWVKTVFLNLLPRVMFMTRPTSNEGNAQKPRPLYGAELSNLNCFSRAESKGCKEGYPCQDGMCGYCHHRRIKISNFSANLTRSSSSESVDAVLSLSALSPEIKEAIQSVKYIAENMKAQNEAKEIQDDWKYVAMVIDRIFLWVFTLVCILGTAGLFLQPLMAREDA
Below, each entry is listed alongside its reported IC50.

- compound: "Cc1nc(NC2CCCC(N(C)C)C2)nnc1-c1ccc(F)cc1F (single isomer, unassigned) [Example 39a]"
  unit_annotation: "nM"
  IC50: 904
- compound: "COc1ccc(-c2cnc(NCc3cncn3C)nc2C)c(Cl)c1"
  unit_annotation: "nM"
  IC50: 141
- compound: "O=C(O)/C=C/C(=O)O.[2H]C([2H])([2H])N1CCC[C@@H]1CNc1ncc(-c2ccc(C(F)(F)F)cc2F)c(C)n1"
  unit_annotation: "nM"
  IC50: 25
- compound: "Cc1nc(NC[C@@H]2CCCN2)ncc1-c1ccc(C(F)(F)F)cc1F"
  unit_annotation: "nM"
  IC50: 40
- compound: "Cc1nc(NC2CCCN(CC(F)(F)F)C2)ncc1-c1ccc(F)cc1F (centres unmarked)"
  unit_annotation: "nM"
  IC50: 1180
- compound: "Cc1nc(NCC2CCCN2C)nnc1-c1ccc(F)cc1F (single isomer, unassigned) [Example 74b]"
  unit_annotation: "nM"
  IC50: 1470
- compound: "CN1CCCC1CCNc1ncc(-c2ccccc2)cn1 (centres unmarked)"
  unit_annotation: "nM"
  IC50: 302
- compound: "Cc1nc(NC2CCN(C)C2)ncc1-c1ccc(F)cc1F (centres unmarked)"
  unit_annotation: "nM"
  IC50: 95
- compound: "Cc1nc(NC(C)[C@@H]2CCCN2)ncc1-c1ccc(C(F)(F)F)cc1F (single isomer, unassigned) [Example 130b]"
  unit_annotation: "nM"
  IC50: 49
- compound: "COc1ccc(-c2nnc(NCC3CCCN3C)nc2C)c(F)c1 (single isomer, unassigned) [Example 54a]"
  unit_annotation: "nM"
  IC50: 331
- compound: "Cc1nc(NC[C@H]2CCCN2C)ncc1-c1ccc(OC(F)(F)F)cc1F [Example 93a]"
  unit_annotation: "nM"
  IC50: 50
- compound: "Cc1nc(NC2CC3CCC(C2)N3C)ncc1-c1ccc(F)cc1F (centres unmarked)"
  unit_annotation: "nM"
  IC50: 108
- compound: "Cc1nc(NC2CCCC(N(C)C)C2)ncc1-c1ccc(F)cc1F (single isomer, unassigned) [Example 55b]"
  unit_annotation: "nM"
  IC50: 81
- compound: "COc1ccc(-c2cnc(NCC3CCN(C)C3)nc2C2CC2)c(F)c1 (centres unmarked)"
  unit_annotation: "nM"
  IC50: 103
- compound: "COc1ccc(-c2cnc(NCC3CCCOC3)nc2C)c(F)c1 (centres unmarked)"
  unit_annotation: "nM"
  IC50: 1100
- compound: "[2H]C([2H])([2H])N1CCCC1CNc1ncc(-c2ccc(F)cc2F)c(C)n1 (centres unmarked)"
  unit_annotation: "nM"
  IC50: 45
- compound: "COc1ccc(-c2cnc(NCC3CCCCN3C)nc2C)c(F)c1 (centres unmarked)"
  unit_annotation: "nM"
  IC50: 20
